Listing: IC50 of selected molecules
# Assay system: Voltage-gated inwardly rectifying potassium channel KCNH2 (Homo sapiens)
# Sequence (Q12809 whole entry): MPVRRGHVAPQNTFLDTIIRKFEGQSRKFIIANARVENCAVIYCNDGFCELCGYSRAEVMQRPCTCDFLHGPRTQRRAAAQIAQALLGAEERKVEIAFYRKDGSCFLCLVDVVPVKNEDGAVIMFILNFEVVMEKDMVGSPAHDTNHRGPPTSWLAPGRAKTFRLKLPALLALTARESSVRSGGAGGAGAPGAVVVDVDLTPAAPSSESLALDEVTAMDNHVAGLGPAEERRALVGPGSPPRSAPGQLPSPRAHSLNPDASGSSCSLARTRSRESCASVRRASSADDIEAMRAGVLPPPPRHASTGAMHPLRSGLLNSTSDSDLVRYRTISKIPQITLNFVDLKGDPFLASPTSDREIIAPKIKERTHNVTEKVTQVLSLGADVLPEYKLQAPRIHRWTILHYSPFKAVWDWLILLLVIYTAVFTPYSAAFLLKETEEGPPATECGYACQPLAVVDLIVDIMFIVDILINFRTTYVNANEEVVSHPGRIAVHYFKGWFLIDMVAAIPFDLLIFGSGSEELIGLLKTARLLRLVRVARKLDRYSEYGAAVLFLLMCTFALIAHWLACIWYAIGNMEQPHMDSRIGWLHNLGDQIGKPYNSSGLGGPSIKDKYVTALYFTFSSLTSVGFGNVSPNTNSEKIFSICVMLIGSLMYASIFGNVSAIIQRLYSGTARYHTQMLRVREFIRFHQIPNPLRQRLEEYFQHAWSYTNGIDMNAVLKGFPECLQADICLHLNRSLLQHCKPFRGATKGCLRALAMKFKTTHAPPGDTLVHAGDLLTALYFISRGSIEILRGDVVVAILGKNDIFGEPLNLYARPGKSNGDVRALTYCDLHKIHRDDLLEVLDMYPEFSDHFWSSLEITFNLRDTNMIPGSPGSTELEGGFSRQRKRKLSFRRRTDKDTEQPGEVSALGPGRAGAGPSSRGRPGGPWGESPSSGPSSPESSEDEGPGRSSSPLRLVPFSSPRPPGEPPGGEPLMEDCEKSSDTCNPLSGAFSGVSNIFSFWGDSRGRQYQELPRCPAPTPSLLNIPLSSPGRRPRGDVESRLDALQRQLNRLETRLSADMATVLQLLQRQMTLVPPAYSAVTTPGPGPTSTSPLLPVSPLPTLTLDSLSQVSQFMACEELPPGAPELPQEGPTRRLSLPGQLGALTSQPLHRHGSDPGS
# Protocol description: Inhibition of human ERG assessed as reduction of K+ current
Reply with just the number (in µM).

Recorded IC50, per entry:
smiles_repr=COc1ccc2ccc(=O)n(C[C@H](O)[C@@H]3CC[C@@H](NCc4ccc5c(n4)NC(=O)CO5)CO3)c2n1 assay_system="Voltage-gated inwardly rectifying potassium channel KCNH2 (Homo sapiens)" recorded_result=15
smiles_repr=COc1ccc2ncc(F)c(C[C@H](N)[C@@H]3CC[C@@H](NCc4ccc5c(n4)NC(=O)CO5)CO3)c2n1 assay_system="Voltage-gated inwardly rectifying potassium channel KCNH2 (Homo sapiens)" recorded_result=5

Query string: Which value of IC50 has been reported for `COc1ccc2ccc(=O)n(C[C@H](N)[C@@H]3CC[C@@H](NCc4ccc5c(n4)NC(=O)CO5)CO3)c2n1` in the records?
Result string: 52
